assayProcedure: Selectivity index, ratio of CC50 for Influenza A virus (A/California/07/2009(H1N1)) infected MDCK cells to EC50 for antiviral activity against Influenza A virus H1N1 (A/California/07/2009(H1N1)) infected in MDCK cells
Type: toxicity, cell-based
conditionParameters: dog; read-out: Ratio CC50/EC50
Known selectivity ratio of a selection of molecules

[
  {
    "molecule": "CC(C)C1=C[C@]23CC[C@@H]4[C@](C)(CCC[C@@]4(C)C(=O)O)[C@H]2C[C@H]1[C@H]1C(=O)OC(=O)[C@H]13",
    "selectivity ratio": 1.5
  },
  {
    "molecule": "COC(=O)[C@]12CC[C@H](O)[C@H]1[C@@]13C=C(C(C)C)[C@@H]2C[C@@H]1[C@@]1(C)CCC[C@@](C)(C(=O)OC)[C@@H]1CC3",
    "selectivity ratio": 1.1
  },
  {
    "molecule": "COC(=O)[C@]1(C)CCC[C@]2(C)[C@H]3C[C@H]4C(C(C)C)=C[C@]3(CC[C@H]21)[C@@H]1/C(=N/O)CC[C@H](O)[C@@H]14",
    "selectivity ratio": 1.1
  },
  {
    "molecule": "COC(=O)[C@]1(C)CCC[C@]2(C)[C@H]3C[C@H]4C(C(C)C)=C[C@]3(CC[C@H]21)[C@H]1[C@@H]4[C@@H](O)CC[C@@H]1O",
    "selectivity ratio": 1.9
  },
  {
    "molecule": "COC(=O)[C@]12CCC(=O)[C@H]1[C@@]13C=C(C(C)C)[C@@H]2C[C@@H]1[C@@]1(C)CCC[C@@](C)(C(=O)OC)[C@@H]1CC3",
    "selectivity ratio": 1.1
  },
  {
    "molecule": "COC(=O)[C@]1(C)CCC[C@]2(C)[C@H]3C[C@H]4C(C(C)C)=C[C@]3(CC[C@H]21)[C@@H]1C(=O)[C@H]2O[C@H]2C(=O)[C@@H]14",
    "selectivity ratio": 1.2
  },
  {
    "molecule": "COC(=O)[C@]1(C)CCC[C@]2(C)[C@H]3C[C@H]4C(C(C)C)=C[C@]3(CC[C@H]21)[C@H]1[C@@H]4[C@@H](OC(=O)c2cccnc2)CC[C@@H]1OC(=O)c1cccnc1",
    "selectivity ratio": 1.1
  },
  {
    "molecule": "COC(=O)[C@]1(C)CCC[C@]2(C)[C@H]3C[C@H]4C(C(C)C)=C[C@]3(CC[C@H]21)[C@@H]1C(=O)CCC2(OCCO2)[C@@H]14",
    "selectivity ratio": 1.3
  },
  {
    "molecule": "COC(=O)[C@]12C=CC(=O)[C@H]1[C@@]13C=C(C(C)C)[C@@H]2C[C@@H]1[C@@]1(C)CCC[C@@](C)(C(=O)OC)[C@@H]1CC3",
    "selectivity ratio": 1.2
  },
  {
    "molecule": "COC(=O)[C@H]1[C@@H](C(=O)OC)[C@@]23C=C(C(C)C)[C@@H]1C[C@@H]2[C@@]1(C)CCC[C@@](C)(C(=O)OC)[C@@H]1CC3",
    "selectivity ratio": 2.5
  },
  {
    "molecule": "COC(=O)[C@]1(C)CCC[C@]2(C)[C@H]3C[C@H]4C(C(C)C)=C[C@]3(CC[C@H]21)[C@@H]1C(=O)CC[C@H](OC(=O)/C=C/c2ccccc2)[C@@H]14",
    "selectivity ratio": 1.1
  },
  {
    "molecule": "COC(=O)[C@]1(C)CCC[C@]2(C)[C@H]3CC4C(C(C)C)=C[C@]3(CC[C@H]21)[C@@H]1NC(=O)CC[C@H](O)[C@H]41",
    "selectivity ratio": 1
  },
  {
    "molecule": "COC(=O)[C@]1(C)CCC[C@]2(C)[C@H]3C[C@H]4C(C(C)C)=C[C@]3(CC[C@H]21)[C@@H]1C(=O)OC(=O)[C@@H]14",
    "selectivity ratio": 1.1
  },
  {
    "molecule": "COC(=O)[C@]1(C)CCC[C@]2(C)[C@H]3C[C@H]4C(C(C)C)=C[C@]3(CC[C@H]21)[C@@H]1/C(=N/O)CCC(=O)[C@@H]14",
    "selectivity ratio": 1
  },
  {
    "molecule": "COC(=O)[C@H](CCSC)NC(=O)[C@]1(C)CCC[C@]2(C)[C@H]3C[C@H]4C(C(C)C)=C[C@]3(CC[C@H]21)[C@@H]1C(=O)OC(=O)[C@@H]14",
    "selectivity ratio": 1.1
  },
  {
    "molecule": "CC(C)C1=C[C@@]23CC[C@@H]4[C@](C)(CCC[C@@]4(C)C(=O)O)[C@H]2C[C@@H]1[C@H]1C(=O)C=CC(=O)[C@H]13",
    "selectivity ratio": 1
  },
  {
    "molecule": "CC(C)C1=C[C@@]23CC[C@H]4[C@](C)(COC(=O)/C=C/c5ccccc5)CCC[C@]4(C)[C@H]2C[C@@H]1[C@@H]1[C@H]3[C@@H](OC(=O)/C=C/c2ccccc2)CC[C@@H]1OC(=O)/C=C/c1ccccc1",
    "selectivity ratio": 1.1
  },
  {
    "molecule": "COC(=O)[C@H](C)NC(=O)[C@]1(C)CCC[C@]2(C)[C@H]3C[C@H]4C(C(C)C)=C[C@]3(CC[C@H]21)[C@@H]1C(=O)OC(=O)[C@@H]14",
    "selectivity ratio": 1.1
  },
  {
    "molecule": "COC(=O)[C@]1(C)CCC[C@]2(C)[C@H]3C[C@@H]4[C@@H]5[C@H]6[C@H](OC(C)=O)CC[C@@H]5OC4(C(C)C)C[C@]63CC[C@H]21",
    "selectivity ratio": 1.1
  },
  {
    "molecule": "COC(=O)[C@H]1[C@@H](C(=O)OC)C2(C(=O)OC)CC[C@@H]3[C@](C)(CCC[C@@]3(C)C(=O)OC)[C@H]2C[C@H]1C(=O)C(C)C (stereo partly specified)",
    "selectivity ratio": 1
  },
  {
    "molecule": "COC(=O)[C@]1(C)CCC[C@]2(C)[C@H]3C[C@H]4C(C(C)C)=C[C@]3(CC[C@H]21)[C@@H]1C(=O)CC[C@H](OC(=O)c2cccnc2)[C@@H]14",
    "selectivity ratio": 1.1
  }
]
